Every entry's value here was drawn from patent US8530648B2.

# Measured Target: hOx1R (Homo sapiens (Human), UniProt O43613)
# Sequence (O43613 whole entry): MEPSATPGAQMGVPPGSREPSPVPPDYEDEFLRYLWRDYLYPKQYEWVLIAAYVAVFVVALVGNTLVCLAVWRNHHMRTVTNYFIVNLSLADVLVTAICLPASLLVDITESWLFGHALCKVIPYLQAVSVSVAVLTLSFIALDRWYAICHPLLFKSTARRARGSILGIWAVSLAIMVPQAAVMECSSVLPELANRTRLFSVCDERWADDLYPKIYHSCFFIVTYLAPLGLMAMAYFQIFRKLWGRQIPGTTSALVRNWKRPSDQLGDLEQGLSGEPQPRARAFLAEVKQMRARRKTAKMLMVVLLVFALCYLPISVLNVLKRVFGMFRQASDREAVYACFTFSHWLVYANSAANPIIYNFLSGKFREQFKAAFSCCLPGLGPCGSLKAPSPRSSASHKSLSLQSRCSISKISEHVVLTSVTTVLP
# Procedure Details: Calcium accumulation in cells (FLIPR), hOx1R
# Protocol Conditions: inhibition of orexin A induced calcium accumulation, Cheng and Prusoff correction
Property: Ki (nM)

1) O=C1N(Cc2cccc3c2OCO3)CCCC12CCN(c1cnc3ccccc3n1)CC2    904
2) O=C1N(Cc2cccc3ccccc23)CCCC12CCN(c1cnc3ccccc3n1)CC2    482
3) O=C1N(Cc2ccccc2-c2ncco2)CCCC12CCN(c1cnc3ccccc3n1)CC2    981
4) O=C1N(Cc2cccc3cccnc23)CCCC12CCN(c1cnc3ccccc3n1)CC2    1760
5) O=C1N(Cc2ncoc2-c2ccccc2)CCCC12CCN(c1cnc3ccccc3n1)CC2    223

I. O=C1N(Cc2c[nH]c3ccccc23)CCCC12CCN(c1cc3nccnc3cn1)CC2
II. O=C1N(Cc2cccc(-n3cccn3)c2)CCCC12CCN(c1cnc3ccccc3n1)CC2
INPUT: Which item exceeds the other in Ki, I or II ? Give the label of your selection.
OUTPUT: I
(I: 665 nM, II: 391 nM)

* * *

# Measured Target: hOx1R (Homo sapiens (Human), UniProt O43613)
# Procedure Details: Calcium accumulation in cells (FLIPR), hOx1R
# Protocol Conditions: inhibition of orexin A induced calcium accumulation, Cheng and Prusoff correction
Property: Ki (nM)

These recorded examples may help you get a feel for the data.
1) O=C1N(Cc2ccnc(N3CCOCC3)c2)CCCC12CCN(c1cnc3ccccc3n1)CC2    2040
2) Cc1nnc(N2CCC3(CCCN(Cc4c[nH]c5ccccc45)C3=O)CC2)c2ccccc12    1700
3) O=C1CCCC2(CCN(c3nc4ccccc4[nH]3)CC2)N1Cc1cccc2[nH]ccc12    3790
4) Cc1cccc(-c2sc(C)nc2CN2CCCC3(CCN(c4cnc5ccccc5n4)CC3)C2=O)c1    1110
5) O=C1N(Cc2c[nH]c3ccccc23)CCCC12CCN(c1ccc3ccccc3n1)CC2    571
6) Cc1cc(CN2CCCC3(CCN(c4cnc5ccccc5n4)CC3)C2=O)c2ccccc2n1    2360
7) O=C1N(Cc2cccc(-c3ccccn3)c2)CCCC12CCN(c1cnc3ccccc3n1)CC2    420
8) Cn1ccc2c(CN3CCCC4(CCN(c5cnc6ccccc6n5)CC4)C3=O)cccc21    614

P. Cc1cc(N2CCC3(CCCN(Cc4c[nH]c5ccccc45)C3=O)CC2)nc2ccccc12
Q. O=C1N(Cc2c[nH]c3ccccc23)CCCC12CCN(c1nccc(-c3ccncc3)n1)CC2
INPUT: Which item exceeds the other in Ki, P or Q ? Give the label of your selection.
OUTPUT: Q

* * *

# Measured Target: hOx1R (Homo sapiens (Human))
# Procedure Details: Calcium accumulation in cells (FLIPR), hOx1R
# Protocol Conditions: inhibition of orexin A induced calcium accumulation, Cheng and Prusoff correction
Property: Ki (µM)

1. O=C1N(Cc2cccc3c2CCN3)CCCC12CCN(c1cnc3ccccc3n1)CC2    1.25
2. O=C1N(Cc2ccccc2-n2nccn2)CCCC12CCN(c1cnc3ccccc3n1)CC2    2.11
3. N#Cc1cc(CN2CCCC3(CCN(c4cnc5ccccc5n4)CC3)C2=O)ccc1F    1.7

* * *

# Measured Target: UniProt O43614
# Sequence (O43614 whole entry): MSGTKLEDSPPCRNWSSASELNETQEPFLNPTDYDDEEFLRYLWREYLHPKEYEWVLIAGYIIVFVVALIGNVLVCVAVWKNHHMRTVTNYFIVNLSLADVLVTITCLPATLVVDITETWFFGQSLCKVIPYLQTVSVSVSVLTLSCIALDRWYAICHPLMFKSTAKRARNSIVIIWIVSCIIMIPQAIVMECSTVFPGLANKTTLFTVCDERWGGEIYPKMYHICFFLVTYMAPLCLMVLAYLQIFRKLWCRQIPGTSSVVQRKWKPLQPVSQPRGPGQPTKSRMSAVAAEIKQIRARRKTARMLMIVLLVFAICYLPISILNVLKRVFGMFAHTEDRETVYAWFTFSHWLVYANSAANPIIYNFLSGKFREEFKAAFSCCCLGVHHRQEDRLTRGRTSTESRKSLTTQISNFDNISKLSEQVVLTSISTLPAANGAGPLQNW
# Procedure Details: Calcium accumulation in cells (FLIPR), hOx2R
# Protocol Conditions: inhibition of orexin A induced calcium accumulation, Cheng and Prusoff correction
Property: Ki (nM)

1) O=C1N(Cc2c[nH]c3ccccc23)CCCC12CCN(c1ccc(-c3nccs3)cn1)CC2 [Example 161]    713
2) O=C1N(Cc2cccc(Cl)c2)CCCC12CCN(c1cnc3ccccc3n1)CC2 [Example 27]    84
3) Cc1cnc(-c2cccc(CN3CCCC4(CCN(c5cnc6ccccc6n5)CC4)C3=O)c2)o1 [Example 147]    7
4) O=C1N(Cc2cccc(-n3ccnn3)c2)CCCC12CCN(c1cnc3ccccc3n1)CC2 [Example 46]    247
5) O=C1N(Cc2ccccn2)CCCC12CCN(c1cnc3ccccc3n1)CC2 [Example 62]    833

A. O=C1CCCC2(CCN(c3cnc4ccccc4n3)CC2)N1Cc1c[nH]c2ccccc12 [Example 43]
B. Cc1cc(C)nc(CN2CCCC3(CCN(c4cnc5ccccc5n4)CC3)C2=O)c1 [Example 106]
C. O=C1N(Cc2noc3ccccc23)CCCC12CCN(c1cnc3ccccc3n1)CC2 [Example 36]
D. O=C1N(Cc2ccccc2-n2cccn2)CCCC12CCN(c1cnc3ccccc3n1)CC2 [Example 85]
INPUT: Order the items by recorded Ki; the first position goes to the largest value. # the answer lists labels in the order requested
OUTPUT: B, D, C, A
